Could you please report measured apparent KD of MS2 coat protein for the items listed next?
Tested on: MS2 coat protein
MEASUREMENT_DESCRIPTION: apparent KD of MS2 coat protein; higher = weaker reporter binding
CONDITIONS: Eterna round: R107; input ligand: tryptophan 2.4 mM

Please give the documented apparent KD of MS2 coat protein of GAAAGAUGAGGCGGCAGUACCGAUGUCGAUACCAGCAUGAACAAAUGCCCUUGGCAGCGACAUGAGGAUCACCCAUGUAUCUGCG [Reraatlaan] 11.6 nM

Please give the documented apparent KD of MS2 coat protein of AACAUCUGGCGUGAUACCAGCCACAUGAGGAUCACCCAUGUCAACACUCGCAAUUGCGACGGCCCUUGGCAGCACGCAUCCUCAG [Sorioncege] 60.9 nM

Please give the documented apparent KD of MS2 coat protein of UUAAAUGUGACGGAUACCAGCGUGUUGUAGAACAUGAGGAUCACCCAUGUAGUGAUCGAGCGCCCUUGGCAGCUGGUAUGUUUGA [7.Y] 270 nM

Please give the documented apparent KD of MS2 coat protein of AUUUACAUGGUCAUAUAUAUAUCGUCAGAUACCAGACUAGAUAUUGUCCCUUGGCAGCUGUUACAUGAGGAUCACCCAUGUUAUA [JR_Nu_ExcTheophyA_Sub020] 178 nM

Please give the documented apparent KD of MS2 coat protein of CGGCCCUCACGUGAGGAUCACCCACGUGAUACCAGCCUGGAAACAGGCCCUUGGCAGCACUAGGUCAUCAAAGAUGACCAAGCCG [TheoAX 27 #OpenEnded #AlternativeMS2] 11.3 nM

Please give the documented apparent KD of MS2 coat protein of AUCGUACCUGGUGAUACCAGCAAGUGAUUAUAACAUGAGGAUCACCCAUGUAAUCAGUGAUGCCCUUGGCAGCAUAAUCGGUACA [#24 Same State - Theophylline B] 26.6 nM

====

System: MS2 coat protein
MEASUREMENT_DESCRIPTION: apparent KD of MS2 coat protein, switch ON state; designed switch direction (-1 OFF switch, 1 ON switch): -1; higher = weaker reporter binding
CONDITIONS: FMN input: 0 or 200 uM; Eterna round: R93 (includes R88 designs)
MEASURE_NAME: apparent KD of MS2 coat protein (nM)
Give the number; nM is assumed, so skip it.

Please give the documented apparent KD of MS2 coat protein of ACAGUUACAGGAUAUACAAGGAAAAAUAAAAAUAAAAUUCAACAUGAGGAUCACCCAUGUAGAAGGGUAACUGA [Ex2 Design 200: Random 15] 30

Please give the documented apparent KD of MS2 coat protein of UAAAAACAUGAGGAUCACCCAUGUGAGGAUAUGUACGAAAUAAAUAAAAAAUAAAAGUACAGAAGGCACAAAAU [Mat - Exclusion 1 - Eli mod - D6] 37

Please give the documented apparent KD of MS2 coat protein of GAGUAAGGAGGAUAUACAUGAGGAUCACCCAUGUAAAAAGGGAAAGUAGAAAAGUAGAGUAGAAGGCCUAUAGA [JR_Exc003_Sub1702] 70.4

Please give the documented apparent KD of MS2 coat protein of AAUGCGGCAGGAUAUACAUGAGGAUCACCCAUGUAGAUCAGAUAUAUGGGAAAACCAUGUAGAAGGGCCGCAAA [Ex 3May 60] 109

Please give the documented apparent KD of MS2 coat protein of AAGAAACAUGAGGAUCACCCAUGUGAGGAUAUUCAAAAGAAAAGAAAAGAAAGAAGAAGAAGAAGGCACAAAGG [Neferkamin] 24.7

Please give the documented apparent KD of MS2 coat protein of AGAAUACAUGAGGAUCACCCAUGUGAGGAUAUAUGAAGAAAAAGAAAAGAAAAGAAACAUAGAAGGCACAAAAG [EX 1 May 16] 16.1
